- Test system: MS2 coat protein
- test-details: apparent KD of MS2 coat protein; designed switch direction (-1 OFF switch, 1 ON switch): -1; higher = weaker reporter binding
- run-conditions: input ligand: none
Is apparent KD of MS2 coat protein at least 0.04 µM? Then Criterion met. If not, Criterion not met.

State whether the measured apparent KD of MS2 coat protein reaches 0.04 µM, counting equality as reaching it, for GUACUAGAAUAUCAGUCGCACAUGAGGAUCACCCAUGUCAUGGGUAGAUAAAUAAAUAAAGAUACUGCUCGUCUUAU [Cac sensor turnoff var1 sub1] (Eterna round: R97, puzzle: Sensor, turn-off variant 1) Criterion met

State whether the measured apparent KD of MS2 coat protein reaches 0.04 µM, counting equality as reaching it, for GAGCCAUCGUGAGAUGGCUAAUAUACAUGAGGAUCACCCAUGUAGGAUAUCGAUUGCUUUGCAGUCGAGAAGGACAUGUUUAAU [JL ENG3 3.97] (Eterna round: R96, puzzle: Exclusion NG 3) Criterion not met

State whether the measured apparent KD of MS2 coat protein reaches 0.04 µM, counting equality as reaching it, for ACGUAGGUAGUUAGGAUAUUUAGUAUAUUUACAGUGAAGAAGGAACAUGAGGAUCACCCAUGUAGUGGUGUCCA [Eternabot (L1) Solution 68] (Eterna round: R97, puzzle: Brourd's mod of Exclusion 4) Criterion met

State whether the measured apparent KD of MS2 coat protein reaches 0.04 µM, counting equality as reaching it, for CGGGCCGGCCUUCCGGCCGGCCCGACAUGAGGAUCACCCAUGUAGGAUAUCCCGGCUGCCGGCCGGGAGAAGGGCGUGCGCUUU [-47.6, -45.1 kcal, 14% A] (Eterna round: R96, puzzle: Exclusion NG 3) Criterion not met

State whether the measured apparent KD of MS2 coat protein reaches 0.04 µM, counting equality as reaching it, for ACUGGUCGAGGAUAUACGAUCGUGCUUCGGCACGUAAGAUCACAUGAGGAUCACCCAUGUAGAAGGCGACCAGU [Mod 4 - Jieux - Exclusion 2] (Eterna round: R97, puzzle: Exclusion 2) Criterion not met

State whether the measured apparent KD of MS2 coat protein reaches 0.04 µM, counting equality as reaching it, for UUAAUUAAUUAAUUAUAAGAUCAACAUGAGGAUCACCCAUGUGAGGAUAUCAGCUCGUGUAGAGCUGAGAAGGCACAAAUAAUU [ExNG3/16-B3] (Eterna round: R96, puzzle: Exclusion NG 3) Criterion met

State whether the measured apparent KD of MS2 coat protein reaches 0.04 µM, counting equality as reaching it, for GUUGACGGAGGAUAUACAGCCGAGAUCCACCGUGUGGAGGAACAUGAGGAUCACCCAUGUAGAAGGCUGCAGUA [Eternabot (L2) Solution 92] (Eterna round: R97, puzzle: Exclusion 2) Criterion not met

State whether the measured apparent KD of MS2 coat protein reaches 0.04 µM, counting equality as reaching it, for GUAGAGUGAGGAUAUACGAGAUCGAUAGAUCAACGAUCCAAACAUGAGGAUCACCCAUGUAGAAGGCACUCUAC [Mat - Exclusion 2 - Eli Mod - D8] (Eterna round: R97, puzzle: Exclusion 2) Criterion not met

State whether the measured apparent KD of MS2 coat protein reaches 0.04 µM, counting equality as reaching it, for GAUCAUGCAGGAUAUACAUGAACCAUGAAAACAUGGUUUUCACAUGAGGAUCACCCAUGUAGAAGGGCAUGAUC [Omei Ex2 A7] (Eterna round: R97, puzzle: Exclusion 2) Criterion met

State whether the measured apparent KD of MS2 coat protein reaches 0.04 µM, counting equality as reaching it, for GUCAGCUCGUGAGGAUAUACAUCACUGCUUCGGCAGUGUAUUAAGAUCACAUGAGGAUCACCCAUGUAGAAGGCACGAGCUGAC [ENG2/2-A1] (Eterna round: R96, puzzle: Exclusion NG 2) Criterion not met

State whether the measured apparent KD of MS2 coat protein reaches 0.04 µM, counting equality as reaching it, for UUUUUAUAUGAAGGAUAUACUUAACAUGAGGAUCACCCAUGUGGUGUUGUGAGUGAGUGAGUUUAGUAGAAGGUCAAGUAUUUG [JMF's solution 42] (Eterna round: R96, puzzle: Exclusion NG 2) Criterion met

State whether the measured apparent KD of MS2 coat protein reaches 0.04 µM, counting equality as reaching it, for UUAUUGGUAGUGAGGAUAUCGGAUAGAUAGAUAUUCGAGAAGGCACAUGAGGAUCACCCAUGUAAGAUUGGAAA [JR_BMEx4_Sub045] (Eterna round: R97, puzzle: Brourd's mod of Exclusion 4) Criterion not met

State whether the measured apparent KD of MS2 coat protein reaches 0.04 µM, counting equality as reaching it, for AAUAACAAGCCGAUCCUUCACAUGAGGAUCACCCAUGUGUUCGUCUUGUAAAGUACUAUCACGAAAGUGAUAGUACA (Eterna round: R97, puzzle: Sensor, turn-off variant 1) Criterion not met

State whether the measured apparent KD of MS2 coat protein reaches 0.04 µM, counting equality as reaching it, for AGUCCUGGAGUUAGGAUAUGGCGUAUCGCUGCGCUUCAGAAGGGACUUGAGGAUCACCCAAGUAGCCGUGAGGG [salish99_bmod_ex4_r4_008] (Eterna round: R97, puzzle: Brourd's mod of Exclusion 4) Criterion met

State whether the measured apparent KD of MS2 coat protein reaches 0.04 µM, counting equality as reaching it, for AAUAACAAGCAGAUCCUAAACAUGAGGAUCACCCAUGUGUUCGUCUUGUAAAGUACUAUCACGAAAGUGAUAGUACA (Eterna round: R97, puzzle: Sensor, turn-off variant 1) Criterion met

State whether the measured apparent KD of MS2 coat protein reaches 0.04 µM, counting equality as reaching it, for GCACGGAGUGUAGGAUAUCUGUGCGAUUAGCUCAGAGAAGGACAUGAGGAUCACCCAUGUGUGUUCCAAUACUCAAAUCCGUGC [Eli exng1 - 064] (Eterna round: R96, puzzle: Exclusion NG 1) Criterion met

State whether the measured apparent KD of MS2 coat protein reaches 0.04 µM, counting equality as reaching it, for UUAAUGGCUGUGAGGAUAUCGGAUAGAUAGAUAUUCGAGAAGGCACAUGAGGAUCACCCAUGUGUGAUUAGAGA [Brourd's EX4 #63] (Eterna round: R97, puzzle: Brourd's mod of Exclusion 4) Criterion not met
